- assay: Repeat once-weekly IV dose toxicokinetics in rats
- Type: in vivo
- stated.conditions: female, rat, in vivo, iv, 3.1 mg/kg, rats F, 3.1 mg/kg once-weekly IV, Day 0; read-out: Vss
observation.type: Vd (L/kg)
Number only, in L/kg; omit the unit.

Task: Field request: Vd | item: CC1(C)C(=CC=C2CCCC(C=CC3=[N+](CCCCS(=O)(=O)[O-])c4ccc(S(=O)(=O)O)cc4C3(C)C)=C2Oc2ccc(CC(NC(=O)c3ccc(NCc4cnc5nc(N)[nH]c(=O)c5n4)cc3)C(=O)O)cc2)N(CCCCS(=O)(=O)O)c2ccc(S(=O)(=O)O)cc21 (stereo not shown)
Output: 1.08

###

- assay: Repeat once-weekly IV dose toxicokinetics in dogs
- Format: in vivo
- stated.conditions: female, dog, in vivo, iv, 13.9 mg/kg, dogs F, 13.9 mg/kg once-weekly IV, Day 0; read-out: Vss
observation.type: Vd
Give your result as the value with the unit written after it.

Task: Reported Vd, compound CC1(C)C(=CC=C2CCCC(C=CC3=[N+](CCCCS(=O)(=O)[O-])c4ccc(S(=O)(=O)O)cc4C3(C)C)=C2Oc2ccc(CC(NC(=O)c3ccc(NCc4cnc5nc(N)[nH]c(=O)c5n4)cc3)C(=O)O)cc2)N(CCCCS(=O)(=O)O)c2ccc(S(=O)(=O)O)cc21 (stereo not shown) [pafolacianine] : ____
Output: 2.2 L/kg

###

- assay: Phase 1a pharmacokinetics in healthy volunteers, single IV administration
- Assay type: in vivo, human
- stated.conditions: human, plasma, intravenous, 0.2 mg/kg, in 220 ml 5% dextrose, 60-min infusion
observation.type: Tmax (h)
Field: numeric (h). Do not append units.

Task: Entry CC1(C)C(=CC=C2CCCC(C=CC3=[N+](CCCCS(=O)(=O)[O-])c4ccc(S(=O)(=O)O)cc4C3(C)C)=C2Oc2ccc(CC(NC(=O)c3ccc(NCc4cnc5nc(N)[nH]c(=O)c5n4)cc3)C(=O)O)cc2)N(CCCCS(=O)(=O)O)c2ccc(S(=O)(=O)O)cc21 (stereo not shown) [pafolacianine] : reported Tmax = ?
Output: 1.09

###

- assay: Repeat once-weekly IV dose toxicokinetics in dogs
- Format: in vivo
- stated.conditions: male, dog, in vivo, iv, 9.3 mg/kg, dogs M, 9.3 mg/kg once-weekly IV, Day 13; read-out: T1/2 (converted)
observation.type: half-life (h)
Give the value in h but do not write h after it.

Task: Could you tell me which half-life is on file for CC1(C)C(=CC=C2CCCC(C=CC3=[N+](CCCCS(=O)(=O)[O-])c4ccc(S(=O)(=O)O)cc4C3(C)C)=C2Oc2ccc(CC(NC(=O)c3ccc(NCc4cnc5nc(N)[nH]c(=O)c5n4)cc3)C(=O)O)cc2)N(CCCCS(=O)(=O)O)c2ccc(S(=O)(=O)O)cc21 (stereo not shown) [pafolacianine] ?
Output: 13.3

###

- assay: Single IV dose toxicokinetics in rats
- Assay type: in vivo
- stated.conditions: rat, in vivo; female rats, 46.3 mg/kg single IV, Study Day 0
observation.type: C0 (µg/mL)
The reply should be a number in µg/mL, with the unit left off.

Task: // C0 lookup, key: CC1(C)C(=CC=C2CCCC(C=CC3=[N+](CCCCS(=O)(=O)[O-])c4ccc(S(=O)(=O)O)cc4C3(C)C)=C2Oc2ccc(CC(NC(=O)c3ccc(NCc4cnc5nc(N)[nH]c(=O)c5n4)cc3)C(=O)O)cc2)N(CCCCS(=O)(=O)O)c2ccc(S(=O)(=O)O)cc21 (stereo not shown) [pafolacianine]
Output: 231

###

- assay: Phase 1a pharmacokinetics in healthy volunteers, single IV administration
- Format: in vivo, human
- stated.conditions: human, plasma, intravenous, 0.2 mg/kg, with pre-treatment of antihistamine (clemastine); read-out: Vz
observation.type: Vd (L)
Respond with the bare value in L.

Task: // returns reported Vd for input CC1(C)C(=CC=C2CCCC(C=CC3=[N+](CCCCS(=O)(=O)[O-])c4ccc(S(=O)(=O)O)cc4C3(C)C)=C2Oc2ccc(CC(NC(=O)c3ccc(NCc4cnc5nc(N)[nH]c(=O)c5n4)cc3)C(=O)O)cc2)N(CCCCS(=O)(=O)O)c2ccc(S(=O)(=O)O)cc21 (stereo not shown) [pafolacianine]
Output: 36

###

- assay: Repeat once-weekly IV dose toxicokinetics in rats
- Type: in vivo
- stated.conditions: male, rat, in vivo, iv, 3.1 mg/kg, rats M, 3.1 mg/kg once-weekly IV, Day 13; read-out: T1/2 (converted)
- Protocol: […] On both Day 1 and Day 13, increases in pafolacianine exposure (AUCinf) were trending slightly greater than dose proportional, noting that sparse blood sampling was employed so the variability in the AUCs could not be assessed. […] CL was slow (relative to hepatic blood flow) and Vss was moderate. Mean T1/2 ranged from approximately 6 to 11 hours.
observation.type: half-life (h)
Give the value in h but do not write h after it.

Task: Look at this compound and give its reported half-life. CC1(C)C(=CC=C2CCCC(C=CC3=[N+](CCCCS(=O)(=O)[O-])c4ccc(S(=O)(=O)O)cc4C3(C)C)=C2Oc2ccc(CC(NC(=O)c3ccc(NCc4cnc5nc(N)[nH]c(=O)c5n4)cc3)C(=O)O)cc2)N(CCCCS(=O)(=O)O)c2ccc(S(=O)(=O)O)cc21 (stereo not shown)
Output: 9.67

###

- assay: Repeat once-weekly IV dose toxicokinetics in rats
- Type: in vivo
- stated.conditions: male, rat, in vivo, iv, 3.1 mg/kg, rats M, 3.1 mg/kg once-weekly IV, Day 0; read-out: Vss
observation.type: Vd
Dear colleague, please send the value followed by its unit.

Task: State the recorded Vd for this entry: CC1(C)C(=CC=C2CCCC(C=CC3=[N+](CCCCS(=O)(=O)[O-])c4ccc(S(=O)(=O)O)cc4C3(C)C)=C2Oc2ccc(CC(NC(=O)c3ccc(NCc4cnc5nc(N)[nH]c(=O)c5n4)cc3)C(=O)O)cc2)N(CCCCS(=O)(=O)O)c2ccc(S(=O)(=O)O)cc21 (stereo not shown)
Output: 1.24 L/kg

###

- assay: Repeat once-weekly IV dose toxicokinetics in dogs
- Assay type: in vivo
- stated.conditions: male, dog, in vivo, iv, 9.3 mg/kg, dogs M, 9.3 mg/kg once-weekly IV, Day 13
observation.type: C0
Field note: include the unit after the figure.

Task: Entry CC1(C)C(=CC=C2CCCC(C=CC3=[N+](CCCCS(=O)(=O)[O-])c4ccc(S(=O)(=O)O)cc4C3(C)C)=C2Oc2ccc(CC(NC(=O)c3ccc(NCc4cnc5nc(N)[nH]c(=O)c5n4)cc3)C(=O)O)cc2)N(CCCCS(=O)(=O)O)c2ccc(S(=O)(=O)O)cc21 (stereo not shown) : reported C0 = ?
Output: 72.6 µg/mL

###

- assay: Repeat once-weekly IV dose toxicokinetics in rats
- Format: in vivo
- stated.conditions: female, rat, in vivo, iv, 3.1 mg/kg, rats F, 3.1 mg/kg once-weekly IV, Day 13
- Procedure: […] On both Day 1 and Day 13, increases in pafolacianine exposure (AUCinf) were trending slightly greater than dose proportional, noting that sparse blood sampling was employed so the variability in the AUCs could not be assessed. […] CL was slow (relative to hepatic blood flow) and Vss was moderate. Mean T1/2 ranged from approximately 6 to 11 hours.
observation.type: C0 (ng/mL)
Unit ng/mL implied. Number only.

Task: Item CC1(C)C(=CC=C2CCCC(C=CC3=[N+](CCCCS(=O)(=O)[O-])c4ccc(S(=O)(=O)O)cc4C3(C)C)=C2Oc2ccc(CC(NC(=O)c3ccc(NCc4cnc5nc(N)[nH]c(=O)c5n4)cc3)C(=O)O)cc2)N(CCCCS(=O)(=O)O)c2ccc(S(=O)(=O)O)cc21 (stereo not shown) has what recorded C0?
Output: 4760

###

- assay: Repeat once-weekly IV dose toxicokinetics in rats
- Type: in vivo
- stated.conditions: female, rat, in vivo, iv, 30.8 mg/kg, rats F, 30.8 mg/kg once-weekly IV, Day 13
observation.type: C0 (µg/mL)
Please respond with the number in µg/mL and leave the unit unwritten.

Task: # query: C0 of entry CC1(C)C(=CC=C2CCCC(C=CC3=[N+](CCCCS(=O)(=O)[O-])c4ccc(S(=O)(=O)O)cc4C3(C)C)=C2Oc2ccc(CC(NC(=O)c3ccc(NCc4cnc5nc(N)[nH]c(=O)c5n4)cc3)C(=O)O)cc2)N(CCCCS(=O)(=O)O)c2ccc(S(=O)(=O)O)cc21 (stereo not shown) [pafolacianine]
Output: 105

###

- assay: Single IV dose toxicokinetics in rats
- Assay type: in vivo
- stated.conditions: rat, in vivo; male rats, 46.3 mg/kg single IV, Study Day 0
observation.type: C0
Put down the number, then write its unit next to it.

Task: Can you look up the measured C0 of CC1(C)C(=CC=C2CCCC(C=CC3=[N+](CCCCS(=O)(=O)[O-])c4ccc(S(=O)(=O)O)cc4C3(C)C)=C2Oc2ccc(CC(NC(=O)c3ccc(NCc4cnc5nc(N)[nH]c(=O)c5n4)cc3)C(=O)O)cc2)N(CCCCS(=O)(=O)O)c2ccc(S(=O)(=O)O)cc21 (stereo not shown) for me?
Output: 174 µg/mL
